All figures here come from paper PMC12416549.

Target: T1, TNFR1 (Homo sapiens, UniProt P19438)
T1 chain: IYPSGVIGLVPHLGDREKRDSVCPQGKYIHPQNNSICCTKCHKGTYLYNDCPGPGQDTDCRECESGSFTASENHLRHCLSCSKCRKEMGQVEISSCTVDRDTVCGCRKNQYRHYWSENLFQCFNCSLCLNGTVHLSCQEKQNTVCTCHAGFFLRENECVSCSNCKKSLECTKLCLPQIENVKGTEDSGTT
Experiment: yeast display SC50
metric_name: apparent Kd (screen) (nM)

For orientation, consider the following solved cases.
{"columns": ["binder", "unit_info", "apparent Kd (screen)"],
 "data": [
  ["E62P (designed binder) SMEEEVEKAAKEYEKKKKEAIEKHLEKLKAKDKEAAERFLKELEEAAKEYAKDEAKTMSEEPAKRRAKKYKEKVLLSELSEEEQKEIKEAEEKLVRTILKYVEEAAK", "nM", 15.2],
  ["A90I (designed binder) SMEEEVEKAAKEYEKKKKEAIEKHLEKLKAKDKEAAERFLKELEEAAKEYAKDEAKTMSEEEAKRRAKKYKEKVLLSELSEEEQKEIKEIEEKLVRTILKYVEEAAK", "nM", 1.4],
  ["L25Y (designed binder) SMEEEVEKAAKEYEKKKKEAIEKHYEKLKAKDKEAAERFLKELEEAAKEYAKDEAKTMSEEEAKRRAKKYKEKVLLSELSEEEQKEIKEAEEKLVRTILKYVEEAAK", "nM", 0.446],
  ["E14S (designed binder) SMEEEVEKAAKEYSKKKKEAIEKHLEKLKAKDKEAAERFLKELEEAAKEYAKDEAKTMSEEEAKRRAKKYKEKVLLSELSEEEQKEIKEAEEKLVRTILKYVEEAAK", "nM", 7.07]
]}

P: V102S (designed binder) SMEEEVEKAAKEYEKKKKEAIEKHLEKLKAKDKEAAERFLKELEEAAKEYAKDEAKTMSEEEAKRRAKKYKEKVLLSELSEEEQKEIKEAEEKLVRTILKYSEEAAK
Q: D53L (designed binder) SMEEEVEKAAKEYEKKKKEAIEKHLEKLKAKDKEAAERFLKELEEAAKEYAKLEAKTMSEEEAKRRAKKYKEKVLLSELSEEEQKEIKEAEEKLVRTILKYVEEAAK
Ask | Pick one: P or Q . Which one has the lower reported apparent Kd (screen)? State your choice using its label.
Reply | P
(P: 0.446 nM, Q: 13.8 nM)

a: A47W (designed binder) SMEEEVEKAAKEYEKKKKEAIEKHLEKLKAKDKEAAERFLKELEEAWKEYAKDEAKTMSEEEAKRRAKKYKEKVLLSELSEEEQKEIKEAEEKLVRTILKYVEEAAK
b: L76Q (designed binder) SMEEEVEKAAKEYEKKKKEAIEKHLEKLKAKDKEAAERFLKELEEAAKEYAKDEAKTMSEEEAKRRAKKYKEKVLQSELSEEEQKEIKEAEEKLVRTILKYVEEAAK
Ask | Out of a and b , name the one with the higher apparent Kd (screen). Answer by quoting the chosen item's label.
Reply | a
(a: 3 nM, b: 1.86 nM)
